# credit: paper PMC8286829

- test_target: nsp10–14 fusion protein (Severe acute respiratory syndrome coronavirus 2)
- Construct: with Non-structural protein 10
- assay_comment: biochemical
quantity_name: IC50
Put down the number, then write its unit next to it.

Record summary for O=C1C=C2C(=CCOC2O)O1 (stereo not shown) : reported IC50 = 1.8 µM
